Origin of the recorded values: PubChem BioAssay (NCI)

# System: HCC-2998 colon
# EXPERIMENT_DESCRIPTION: NCI-60 one-dose screen, 48 h (100 = growth as untreated, 0 = no growth, -100 = all killed)
# CONDITION: 10 µM
The panel holds about 83,000 compounds, 20% with a hit somewhere; the sample as a whole holds those more often.
growth: recorded values
MEASURE: growth (%)

COMPOUND	SYSTEM_UNDER_TEST	UNIT_ABBREVIATION	ENDPOINT_RESULT
COc1ccc(C2CC(=O)c3c(O)c(OC)c(OC)c(OC)c3O2)c(O)c1 (stereo not drawn)	HCC-2998 colon	%	15.9
CCN1CCN(c2nc(C)cc(N(CCCNc3ccnc4cc(Cl)ccc34)Cc3ccc4c(c3)OCO4)n2)CC1	HCC-2998 colon	%	-40.3
CO[C@H]1C[C@@H]2CC[C@@H](C)[C@@](O)(O2)C(=O)C(=O)N2CCCC[C@H]2C(=O)O[C@H]([C@H](C)C[C@@H]2CC[C@@H](OC(=O)C(C)(CO)CO)[C@H](OC)C2)CC(=O)[C@H](C)/C=C(\C)[C@@H](O)[C@@H](OC)C(=O)[C@H](C)C[C@H](C)\C=C/C=C/C=C/1C	HCC-2998 colon	%	41.6
CCc1nc(C(N)=O)c(Nc2ccc(N3CCC(N4CCN(C)CC4)CC3)c(OC)c2)nc1NC1CCOCC1	HCC-2998 colon	%	61.4
CCCC(=O)OCC1OC(n2cnc3c(=S)nc[nH]c32)C(OC(=O)CCC)C1OC(=O)CCC (stereo not drawn)	HCC-2998 colon	%	2.11
CC(C)(C)CC(C)(C)Nc1c(-c2c(O)c3ccccc3oc2=O)nc2c(Cl)cc(C(F)(F)F)cn12	HCC-2998 colon	%	107
O=C1CCC(=O)CC1	HCC-2998 colon	%	99.9
O=C(NO)c1ccc(Cn2c(=O)n(CCc3ccccc3)c(=O)c3ccccc32)cc1	HCC-2998 colon	%	62.5
Cc1nn(-c2nc3ccccc3[nH]2)c2c1C(c1ccc(O)cc1)CC(=O)N2 (stereo not drawn)	HCC-2998 colon	%	123
CCN(CCO)CCCOc1ccc2c(Nc3cc(CC(=O)Nc4cccc(F)c4)[nH]n3)ncnc2c1	HCC-2998 colon	%	4.66
CN1CC[C@@H](c2c(O)cc(O)c3c(=O)cc(-c4ccccc4Cl)oc23)[C@@H]1CO	HCC-2998 colon	%	-25.8
CC(C)C1CCC(C)C(C2(C#N)C(N)=NC(N)=C2C#N)C1=O (stereo not drawn)	HCC-2998 colon	%	95.8
O=C(c1ccc(/C=C/c2n[nH]c3ccccc23)cc1)N1CCNCC1	HCC-2998 colon	%	66.3
COC(=O)[C@]12CC[C@@H](C)[C@H](C)[C@@H]1C1=CC[C@@H]3[C@@]4(C)C(c5cnco5)=C[C@@](C)(CO)C4=CC[C@@]3(C)[C@]1(C)CC2	HCC-2998 colon	%	45.5
O=C(NC1CCNCC1)c1[nH]ncc1NC(=O)c1c(Cl)cccc1Cl	HCC-2998 colon	%	-2.4
C=C1C[C@H](O)[C@H](Br)C(C)(C)[C@@]12CCC(C)=C(Cl)C2	HCC-2998 colon	%	42.3
CC(=O)C(C(C)=O)C(c1ccccc1)C(C(C)=O)C(C)=O	HCC-2998 colon	%	106
O=C(NC[C@H](O)CO)c1ccncc1Nc1ccc(I)cc1F	HCC-2998 colon	%	2.1
